- TEST_DESCRIPTION: Bioavailability in rats
- CONDITIONS: rat, in vivo, 10 mg/kg
MEASURE_NAME: MRT last (h)

COMPOUND | MEASURE_NAME | QUANTITATIVE_RESULT
C[C@]12CC[C@H](O)C[C@H]1CCC1C2CC[C@]2(C)[C@@H](c3c[nH]cn3)CC[C@]12O (stereo partly shown) | MRT last | 2.03

* * *

# reported % increase vs Control (SERCA2a Vmax); entries follow
- MEASURED_TARGET: SERCA2a (Canis lupus familiaris)
- Construct: pre-incubated with 2 μg of microsomes; from tissue; host or cells: dog heart left ventricle, SR microsomes
- Sequence (O46674 whole entry): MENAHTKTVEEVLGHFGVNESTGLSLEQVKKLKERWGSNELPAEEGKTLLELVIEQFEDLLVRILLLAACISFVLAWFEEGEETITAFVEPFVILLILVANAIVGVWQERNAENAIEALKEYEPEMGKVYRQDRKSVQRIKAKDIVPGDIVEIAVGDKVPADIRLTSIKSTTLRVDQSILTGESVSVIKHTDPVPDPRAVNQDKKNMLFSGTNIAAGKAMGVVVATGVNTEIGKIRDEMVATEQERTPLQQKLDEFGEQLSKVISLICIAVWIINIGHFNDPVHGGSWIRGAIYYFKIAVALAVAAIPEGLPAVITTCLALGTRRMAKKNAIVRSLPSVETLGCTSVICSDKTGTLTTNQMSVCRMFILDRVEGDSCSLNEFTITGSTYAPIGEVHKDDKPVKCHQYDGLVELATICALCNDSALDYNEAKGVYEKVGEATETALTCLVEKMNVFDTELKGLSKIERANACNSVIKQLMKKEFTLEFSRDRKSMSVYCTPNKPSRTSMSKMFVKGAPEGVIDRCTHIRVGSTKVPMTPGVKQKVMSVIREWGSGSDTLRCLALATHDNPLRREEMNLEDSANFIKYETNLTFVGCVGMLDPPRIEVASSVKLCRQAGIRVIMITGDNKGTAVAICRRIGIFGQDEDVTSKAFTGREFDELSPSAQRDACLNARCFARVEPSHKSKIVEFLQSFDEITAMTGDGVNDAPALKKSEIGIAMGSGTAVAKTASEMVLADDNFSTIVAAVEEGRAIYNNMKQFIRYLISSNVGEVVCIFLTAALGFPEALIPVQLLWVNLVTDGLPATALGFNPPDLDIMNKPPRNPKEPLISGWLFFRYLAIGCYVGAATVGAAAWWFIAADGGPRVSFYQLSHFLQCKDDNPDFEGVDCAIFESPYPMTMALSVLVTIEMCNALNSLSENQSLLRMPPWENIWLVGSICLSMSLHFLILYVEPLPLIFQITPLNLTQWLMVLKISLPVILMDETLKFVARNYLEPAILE
- TEST_DESCRIPTION: SERCA2a ATPase activity in heart-derived SR microsomes from normal dog
- Assay type: biochemical
- CONDITIONS: compound 100 nM

COMPOUND | % increase vs Control (SERCA2a Vmax) (%*)
C[C@]12CC[C@H](O)C[C@H]1CCC1C2CC[C@]2(C)[C@@H](CCc3cc(CCN)on3)CC[C@]12O (stereo partly shown) | 15
C[C@]12CC[C@H](O)C[C@H]1CCC1C2CC[C@]2(C)[C@@H](c3c[nH]cn3)CC[C@]12O (stereo partly shown) | 19
C[C@]12CC[C@H](O)C[C@H]1CCC1C2CC[C@]2(C)[C@@H](c3cc(CCCN)on3)CC[C@]12O (stereo partly shown) | 17
C[C@]12CC[C@H](O)C[C@H]1CCC1C2CC[C@]2(C)[C@@H](c3cc[nH]n3)CC[C@]12O (stereo partly shown) | 16
